Where these numbers come from: the supplement of paper PMC8728848

Quick reference for glycan array binding signal (z-score) among some binders
# Target Or System: Fuc(a1-2)[GalNAc(a1-3)]Gal(b1-4)Glc
# Assay Summary: glycan array binding signal (z-score within array); higher = stronger binding
# Conditions: glycan notation: IUPAC condensed, linker removed
The sample as a whole holds a higher share of the strongest signals than the screen did.
Property Measured: glycan array binding signal (z-score)

# Binder, Property Measured, Numeric Readout
rows = [
    ("MVL (Microcystis viridis), Q9RHG4 (protein) MASYKVNIPAGPLWSNAEAQQVGPKIAAAHQGNFTGQWTTVVESAMSVVEVELQVENTGIHEFKTDVLAGPLWSNDEAQKLGPQIAASYGAEFTGQWRTIVEGVMSVIQIKYTF", "glycan array binding signal (z-score)", -0.201),
    ("CLC (Homo sapiens), Q9UBD9 (protein) MDLRAGDSWGMLACLCTVLWHLPAVPALNRTGDPGPGPSIQKTYDLTRYLEHQLRSLAGTYLNYLGPPFNEPDFNPPRLGAETLPRATVDLEVWRSLNDKLRLTQNYEAYSHLLCYLRGLNRQAATAELRRSLAHFCTSLQGLLGSIAGVMAALGYPLPQPLPGTEPTWTPGPAHSDFLQKMDDFWLLKELQTWLWRSAKDFNRLKKKMQPPAAAVTLHLGAHGF", "glycan array binding signal (z-score)", 1.52),
]
